Species on record: Rattus norvegicus
test.details: Open TG-GATES - Regimen: Single
Type: toxicity, organism-based, Sprague-Dawley
Design: regimen Single, gender Male, age 6 weeks
experimental.setup: in vivo, po, 0 mg/kg, 3 h, tissue Kidney, route gavage, dose level Control
property.name: KIDNEY_R (g)
Quick note: give the figure in g, leave out the unit.

Here is how some compounds turned out for KIDNEY_R.
{"columns": ["compound", "readout.units", "obs.value"],
 "data": [
  ["Nc1ccc(Cc2ccc(N)cc2)cc1", "g", 0.9],
  ["CC(S)C(=O)NCC(=O)O (configuration not stated)", "g", 0.9],
  ["C=C[C@H]1C[N@@]2CC[C@H]1C[C@@H]2[C@@H](O)c1ccnc2ccc(OC)cc12", "g", 1],
  ["COc1cc2ncnc(Nc3ccc(F)c(Cl)c3)c2cc1OCCCN1CCOCC1", "g", 0.9],
  ["CCO", "g", 1],
  ["O=c1ccc2ccccc2o1", "g", 0.8]
]}

Now take the following compound into account.
Exam item: Given `CN(C)CCCN1c2ccccc2Sc2ccc(Cl)cc21` , respond with its KIDNEY_R.
Marked response: 1

---

Recorded Na, one value per entry.
Species on record: Rattus norvegicus
test.details: Open TG-GATES - Regimen: Daily Repeat
Format: toxicity, organism-based, Sprague-Dawley
Parameters: regimen Daily Repeat, gender Male, age 6 weeks
experimental.setup: in vivo, po, 300 mg/kg, […], tissue Plasma, route gavage, dose level Middle, time 28 day

{"columns": ["molecule", "Na"],
 "data": [
  ["CC(=O)[C@@]1(O)CC[C@H]2[C@@H]3C=C(Cl)C4=CC(=O)CC[C@]4(C)[C@H]3CC[C@@]21C", "141.2 meq/L"]
]}

Exam item: Entry CCCCNC(=O)NS(=O)(=O)c1ccc(C)cc1 [TOLBUTAMIDE] needs its Na filled in; supply it.
Marked response: 142.8 meq/L

Exam item: In one line, give reported Na of the entry `O=C(O)c1ccccc1Nc1ccccc1` .
Marked response: 144.6 meq/L

Exam item: Tell me Na reported for CC(S)C(=O)NCC(=O)O (centres undefined)
Marked response: 143 meq/L

---

Organism: Rattus norvegicus
test.details: Open TG-GATES - Regimen: Daily Repeat
Format: toxicity, organism-based, Sprague-Dawley
Set-up: regimen Daily Repeat, gender Male, age 6 weeks
experimental.setup: in vivo, po, 1000 mg/kg, […], tissue Blood, route gavage, dose level High, time 7 day
property.name: APTT
Please state the number and follow it with the unit.

{"columns": ["compound", "property.name", "obs.value"],
 "data": [
  ["CCCCNC(=O)NS(=O)(=O)c1ccc(C)cc1 [TOLBUTAMIDE]", "APTT", "18.1 s"]
]}

Exam item: State, in one line, measured APTT of CC(=O)[C@@]1(O)CC[C@H]2[C@@H]3C=C(Cl)C4=CC(=O)CC[C@]4(C)[C@H]3CC[C@@]21C [CHLORMADINONE]
Marked response: 30 s

Exam item: Give the measured APTT for O=C(O)c1ccccc1Nc1ccccc1 [FENAMIC ACID]
Marked response: 16.6 s

Exam item: # return recorded APTT for entry CC(S)C(=O)NCC(=O)O (centres undefined) [TIOPRONIN]
Marked response: 21.9 s

---

Organism: Rattus norvegicus
test.details: Open TG-GATES - Regimen: Single
Format: toxicity, organism-based, Sprague-Dawley
Set-up: regimen Single, gender Male, age 6 weeks
experimental.setup: in vivo, po, 0 mg/kg, 9 h, tissue Blood, route gavage, dose level Control
Threshold check on Neu: at or above 20% gives Yes, strictly below gives No.

Please review the entries below; each comes with its answer.
{"columns": ["molecule", "group"],
 "data": [
  ["CC(S)C(=O)NCC(=O)O (stereo not given)", "No"],
  ["O=c1ccc2ccccc2o1", "No"],
  ["CN(C/C=C/C#CC(C)(C)C)Cc1cccc2ccccc12", "Yes"]
]}

Exam item: Check this molecule for Neu at or above 20%: NS(=O)(=O)c1cc(C(=O)O)c(NCc2ccco2)cc1Cl [FUROSEMIDE]
Marked response: No

Exam item: Could you verify whether the entry `CC(=O)[C@@]1(O)CC[C@H]2[C@@H]3C=C(Cl)C4=CC(=O)CC[C@]4(C)[C@H]3CC[C@@]21C` shows Neu of no less than 20%?
Marked response: No

---

Species: Rattus norvegicus
test.details: Open TG-GATES - Regimen: Daily Repeat
Type: toxicity, organism-based, Sprague-Dawley
Design: regimen Daily Repeat, gender Male, age 6 weeks
experimental.setup: in vivo, po, 300 mg/kg, […], tissue Plasma, route gavage, dose level Middle, time 28 day
property.name: ALP (IU/L)
Field: numeric (IU/L). Do not append units.

These recorded examples may help you get a feel for the data.
{"columns": ["molecule", "readout.units", "ALP"],
 "data": [
  ["O=C(O)c1ccccc1Nc1ccccc1", "IU/L", 942.2],
  ["CC(S)C(=O)NCC(=O)O (centres undefined)", "IU/L", 1229.6],
  ["CCCCNC(=O)NS(=O)(=O)c1ccc(C)cc1 [TOLBUTAMIDE]", "IU/L", 1057.2]
]}

We next turn to a different molecule, shown below.
Exam item: Specify reported ALP for the molecule shown: `CC(=O)[C@@]1(O)CC[C@H]2[C@@H]3C=C(Cl)C4=CC(=O)CC[C@]4(C)[C@H]3CC[C@@]21C`
Marked response: 1248.8

---

Organism: Rattus norvegicus
test.details: Open TG-GATES - Regimen: Single
Assay type: toxicity, organism-based, Sprague-Dawley
Parameters: regimen Single, gender Male, age 6 weeks
experimental.setup: in vivo, po, 0 mg/kg, 3 h, tissue Plasma, route gavage, dose level Control
property.name: DBIL (mg/dL)
Express the result in mg/dL but write the number alone.

Here's what some known entries look like.
{"columns": ["molecule", "DBIL, mg/dL"],
 "data": [
  ["Nc1ccc(Cc2ccc(N)cc2)cc1", 0.024],
  ["NS(=O)(=O)c1cc(C(=O)O)c(NCc2ccco2)cc1Cl [FUROSEMIDE]", 0.01],
  ["COc1ccc([C@@H]2Sc3ccccc3N(CCN(C)C)C(=O)[C@@H]2OC(C)=O)cc1", 0.01],
  ["COc1cc2ncnc(Nc3ccc(F)c(Cl)c3)c2cc1OCCCN1CCOCC1", 0],
  ["O=c1ccc2ccccc2o1", 0.026],
  ["C=C[C@H]1C[N@@]2CC[C@H]1C[C@@H]2[C@@H](O)c1ccnc2ccc(OC)cc12", 0]
]}

Exam item: Input `CN(C/C=C/C#CC(C)(C)C)Cc1cccc2ccccc12` , output reported DBIL.
Marked response: 0.074

Exam item: Hello, please tell me recorded DBIL for this one: `CC(=O)[C@@]1(O)CC[C@H]2[C@@H]3C=C(Cl)C4=CC(=O)CC[C@]4(C)[C@H]3CC[C@@]21C`
Marked response: 0

Exam item: Identify measured DBIL associated with CCCCNC(=O)NS(=O)(=O)c1ccc(C)cc1 [TOLBUTAMIDE]
Marked response: 0.006

---

Measured KIDNEY_TOTAL by item
Species: Rattus norvegicus
test.details: Open TG-GATES - Regimen: Daily Repeat
Format: toxicity, organism-based, Sprague-Dawley
Design: regimen Daily Repeat, gender Male, age 6 weeks
experimental.setup: in vivo, po, 100 mg/kg, […], tissue Kidney, route gavage, dose level Low, time 28 day
Write down the numeric answer in g and omit the unit.

Worked examples, 3 compounds total:
{"columns": ["compound", "obs.value"],
 "data": [
  ["O=C(O)c1ccccc1Nc1ccccc1", 3],
  ["CC(S)C(=O)NCC(=O)O (centres undefined)", 2.7],
  ["CC(=O)[C@@]1(O)CC[C@H]2[C@@H]3C=C(Cl)C4=CC(=O)CC[C@]4(C)[C@H]3CC[C@@]21C", 2.5]
]}

Exam item: Check the records and state KIDNEY_TOTAL for CCCCNC(=O)NS(=O)(=O)c1ccc(C)cc1 [TOLBUTAMIDE]
Marked response: 2.7

---

Species on record: Rattus norvegicus
test.details: Open TG-GATES - Regimen: Daily Repeat
Assay type: toxicity, organism-based, Sprague-Dawley
Set-up: regimen Daily Repeat, gender Male, age 6 weeks
experimental.setup: in vivo, po, 1000 mg/kg, 72 h, tissue Blood, route gavage, dose level High, time 3 day
WBC listing for selected molecules.
Please respond with the number in x10_2/uL and leave the unit unwritten.

{"columns": ["molecule", "readout.units", "WBC"],
 "data": [
  ["CCCCNC(=O)NS(=O)(=O)c1ccc(C)cc1 [TOLBUTAMIDE]", "x10_2/uL", 89.2],
  ["O=C(O)c1ccccc1Nc1ccccc1 [FENAMIC ACID]", "x10_2/uL", 132.2],
  ["CC(S)C(=O)NCC(=O)O (centres undefined) [TIOPRONIN]", "x10_2/uL", 105.8]
]}

// below: WBC requested for another molecule
Exam item: Annotate the molecule CC(=O)[C@@]1(O)CC[C@H]2[C@@H]3C=C(Cl)C4=CC(=O)CC[C@]4(C)[C@H]3CC[C@@]21C [CHLORMADINONE] with its measured WBC.
Marked response: 122

Just for reference, ChEMBL document CHEMBL3885861 is where these values come from.
